# System name: Alpha-mannosidase (Canavalia ensiformis) (UniProt C0HJB3)
# Sequence (whole entry): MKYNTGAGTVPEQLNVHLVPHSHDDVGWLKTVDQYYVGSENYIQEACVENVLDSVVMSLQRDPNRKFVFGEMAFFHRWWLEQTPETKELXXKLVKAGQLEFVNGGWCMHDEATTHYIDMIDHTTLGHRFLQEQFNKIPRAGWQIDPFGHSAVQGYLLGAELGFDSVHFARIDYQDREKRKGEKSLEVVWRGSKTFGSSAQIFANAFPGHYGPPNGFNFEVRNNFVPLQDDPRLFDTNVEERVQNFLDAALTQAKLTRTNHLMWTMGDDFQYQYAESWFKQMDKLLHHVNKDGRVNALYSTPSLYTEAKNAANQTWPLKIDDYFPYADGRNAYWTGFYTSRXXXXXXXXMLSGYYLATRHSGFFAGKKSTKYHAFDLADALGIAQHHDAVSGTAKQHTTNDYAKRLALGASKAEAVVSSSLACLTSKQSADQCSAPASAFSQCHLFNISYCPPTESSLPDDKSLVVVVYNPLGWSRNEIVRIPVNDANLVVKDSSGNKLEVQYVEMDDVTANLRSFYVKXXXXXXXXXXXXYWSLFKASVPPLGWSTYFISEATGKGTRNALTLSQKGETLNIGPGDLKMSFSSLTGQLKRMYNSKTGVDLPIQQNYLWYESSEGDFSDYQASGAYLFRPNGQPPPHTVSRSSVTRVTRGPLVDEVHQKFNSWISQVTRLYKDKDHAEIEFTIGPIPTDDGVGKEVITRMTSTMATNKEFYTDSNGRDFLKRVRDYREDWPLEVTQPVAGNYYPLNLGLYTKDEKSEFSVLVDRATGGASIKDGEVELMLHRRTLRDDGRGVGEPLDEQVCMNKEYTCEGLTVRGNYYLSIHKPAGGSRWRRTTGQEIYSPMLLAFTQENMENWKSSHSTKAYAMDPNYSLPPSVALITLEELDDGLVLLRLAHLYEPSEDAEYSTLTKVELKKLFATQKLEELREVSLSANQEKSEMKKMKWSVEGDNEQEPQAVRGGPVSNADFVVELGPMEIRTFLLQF
# Method notes: Inhibition of jack bean alpha-mannosidase using p-nitrophenyl glycoside as substrate at 1000 uM by spectrometric method relative to control
Lab note: anything with inhibition at or over 2% counts as Criterion met; the rest go in Criterion not met.

Worked cases, answers included:
OC[C@@H]1[C@@H](O)[C@H](O)[C@H]2[C@H](O)[C@@H](F)CN21    Criterion not met
OC[C@@H]1[C@@H](O)[C@H](O)[C@H]2[C@H](O)[C@H](F)CN21    Criterion met

Prompt: Reported inhibition reaches at least 2% for `OC[C@@H]1[C@@H](O)[C@H](O)[C@H]2C[C@H](O)CN12` ?
Response: Criterion met

Prompt: Queued: `OC[C@@H]1[C@@H](O)[C@H](O)[C@H]2C[C@@H](F)CN12`
Response: Criterion met

Prompt: Similarly, `OC[C@@H]1[C@@H](O)[C@H](O)[C@H]2C[C@@H](O)CN12` ?
Response: Criterion met

Prompt: Follow-up item: `OC[C@@H]1[C@@H](O)[C@H](O)[C@H]2[C@@H](O)C(F)(F)CN21`
Response: Criterion not met

Prompt: Note, next up: `OC[C@@H]1[C@@H](O)[C@H](O)[C@H]2[C@H](O)C(F)(F)CN21`
Response: Criterion met

Prompt: Try the molecule `OC[C@@H]1[C@@H](O)[C@H](O)[C@H]2CC(F)(F)CN12`
Response: Criterion not met

Prompt: What do we get for `OC[C@@H]1[C@@H](O)[C@H](O)[C@H]2[C@@H](O)[C@H](F)CN21` ?
Response: Criterion not met

Prompt: // query: `OC[C@@H]1[C@@H](O)[C@H](O)[C@H]2C[C@H](F)CN12`
Response: Criterion not met

Prompt: Record: `OC[C@@H]1[C@@H](O)[C@H](O)[C@H]2[C@@H](O)[C@@H](F)CN21`
Response: Criterion met
